assay: Induction of HNO release per mol of compound in 0.6 mL MeOH and 0.2 mL of 1 M NaOH after 2 hr by gas chromatographic analysis; type: physicochemical
Label scheme for Activity: lower than 20% is N, 20% and above is Y.

CONS(=O)(=O)CCOC(=O)C(C)c1ccc(CC(C)C)cc1 (stereo unspecified) :: N

I'd appreciate it if you could say whether CC(C)Cc1ccc(C(C)C(=O)OCCS(=O)(=O)NO)cc1 (stereo unspecified) has Activity at least equal to 20%.
Y

API: above_or_equal(metric=Activity, cutoff=20%) for item CCS(=O)(=O)NO [ETHANESULFONYLHYDROXAMIC ACID]
Y

Has COc1ccc2cc([C@H](C)C(=O)OCCS(=O)(=O)NO)ccc2c1 a recorded Activity greater than or equal to 20%?
Y

Would you say O=C(Cc1ccccc1)OCCS(=O)(=O)NO shows Activity at minimum 20%?
Y

* * *

Biological target: Prostaglandin G/H synthase 1 (Ovis aries)
Sequence (P05979 whole entry): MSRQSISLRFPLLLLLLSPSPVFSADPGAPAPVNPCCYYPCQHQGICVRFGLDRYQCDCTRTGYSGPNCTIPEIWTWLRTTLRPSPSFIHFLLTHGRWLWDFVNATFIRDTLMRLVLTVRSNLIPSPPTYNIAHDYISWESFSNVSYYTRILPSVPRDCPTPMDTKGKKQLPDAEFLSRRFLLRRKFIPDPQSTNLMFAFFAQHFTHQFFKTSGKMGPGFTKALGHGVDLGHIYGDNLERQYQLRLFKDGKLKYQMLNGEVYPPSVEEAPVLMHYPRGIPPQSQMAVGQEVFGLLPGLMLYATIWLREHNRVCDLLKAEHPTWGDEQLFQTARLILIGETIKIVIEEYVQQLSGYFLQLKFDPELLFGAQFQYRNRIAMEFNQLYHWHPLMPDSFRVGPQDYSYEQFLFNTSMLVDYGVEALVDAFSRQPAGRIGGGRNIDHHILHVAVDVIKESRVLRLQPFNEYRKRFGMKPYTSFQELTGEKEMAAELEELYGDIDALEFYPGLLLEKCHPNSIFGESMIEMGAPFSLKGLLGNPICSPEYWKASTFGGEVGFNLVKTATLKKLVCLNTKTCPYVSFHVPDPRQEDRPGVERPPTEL
measuredParameter: IC50 (µM)
Numbers only; they are read as µM.

Recorded IC50, per entry:
CONS(=O)(=O)CCOC(=O)C(C)c1ccc(CC(C)C)cc1 (stereo unspecified) :: 14.6
COc1ccc2cc([C@H](C)C(=O)OCCS(=O)(=O)NO)ccc2c1 :: 4.5
CC(C)Cc1ccc(C(C)C(=O)OCCS(=O)(=O)NO)cc1 (stereo unspecified) :: 1.1

Field: next compound
Short answer for COc1ccc2c(c1)c(CC(=O)OCCS(=O)(=O)NO)c(C)n2C(=O)c1ccc(Cl)cc1 : IC50 was 77.7

* * *

Documented Activity across a set of molecules
assay: Chemical stability of the compound in phosphate buffered containg rat serum of pH 7.4 assessed as NO release at 50 uM after 1.5 hr by Griess assay; conditions: pH 7.4, 1.5 h
Just the number in %, nothing appended.

O=C(Cc1ccccc1)OCCS(=O)(=O)NO :: 4.8
CONS(=O)(=O)CCOC(=O)C(C)c1ccc(CC(C)C)cc1 (stereo unspecified) :: 0.9
COc1ccc2c(c1)c(CC(=O)OCCS(=O)(=O)NO)c(C)n2C(=O)c1ccc(Cl)cc1 :: 3.2

Noted for CCS(=O)(=O)NO [ETHANESULFONYLHYDROXAMIC ACID] : its Activity reads 1.4

Recorded result, CC(C)Cc1ccc(C(C)C(=O)OCCS(=O)(=O)NO)cc1 (stereo unspecified) , Activity: 2.1

Just so you know, measured Activity for COc1ccc2cc([C@H](C)C(=O)OCCS(=O)(=O)NO)ccc2c1 came out at 1.3
